Molecular target: CdgS (Nostoc sp. PCC 7120 = FACHB-418)
Sequence (A0ACD7RTW6 1-330): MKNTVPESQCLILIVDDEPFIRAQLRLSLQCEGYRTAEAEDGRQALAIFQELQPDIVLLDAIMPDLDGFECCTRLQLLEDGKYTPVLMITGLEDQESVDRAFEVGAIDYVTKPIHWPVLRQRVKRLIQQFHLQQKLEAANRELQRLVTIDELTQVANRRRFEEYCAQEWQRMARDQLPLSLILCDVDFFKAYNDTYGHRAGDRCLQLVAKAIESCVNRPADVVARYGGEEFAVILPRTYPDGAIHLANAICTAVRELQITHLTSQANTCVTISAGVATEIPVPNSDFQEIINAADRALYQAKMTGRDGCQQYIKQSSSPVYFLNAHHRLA
PROPERTY MEASURED: pKi
Lab note — pKi values are minus log10 of concentrations in M.

Complete the entry with pKi for Nc1nc2c(ncn2[C@@H]2O[C@@H]3CO[P@](=O)(O)O[C@H]4[C@@H](O)[C@H](n5cnc6c(=O)[nH]c(N)nc65)O[C@@H]4CO[P@](=O)(O)O[C@H]3[C@H]2O)c(=O)[nH]1 [c-di-GMP]
5.62
